# experiment-summary: Intrinsic clearance in human hepatocytes assessed per million cells at 1 uM up to 120 mins
# Format: ADME, cell-based, Hepatocyte
# measurement-setup: read-out: CLH
endpoint-label: hepatocyte CLint at 1 µM
Report the figure along with its unit, number first.

Item Cc1cc(COc2nc(N)nc3ccn(Cc4ccccn4)c23)no1 has what recorded hepatocyte CLint at 1 µM? 6 µL/min/1e6 cells

* * *

# Test system: MDR1
# experiment-summary: Apparent permeability across apical to basolateral side in MDCK cells expressing human MDR1 at 5 uM by LC-MS/MS analysis
# Assay type: ADME, cell-based, Canis lupus familiaris
# measurement-setup: dog
endpoint-label: Papp A→B at 5 µM
Include the unit right after the number.

Enter reported Papp A→B at 5 µM observed with MDR1 for Cc1cc(COc2nc(N)nc3ccn(Cc4ccccn4)c23)no1 41 ×10⁻⁶ cm/s

* * *

# experiment-summary: Intrinsic clearance in mouse liver microsomes at 1 uM after 60 mins
# Format: ADME, microsome
# measurement-setup: read-out: CLH
endpoint-label: microsomal CLint at 1 µM (µL/min/mg)
Report the figure in µL/min/mg without appending any unit label.

Can you share its microsomal CLint at 1 µM? I mean this molecule: Cc1cc(COc2nc(N)nc3ccn(Cc4ccccn4)c23)no1 55

* * *

# experiment-summary: AUC (0 to last) in cynomolgus monkey at 10 mg/kg administered via oral gavage measured up to 72 hrs post dose
# Assay type: ADME, organism-based, Macaca fascicularis
# Parameters: dose 10 mg/kg, route oral, time 0 - last
# measurement-setup: in vivo
endpoint-label: AUC(0-t) at 72 h (ng·h/mL)
Record the value in ng·h/mL, omitting the unit from your answer.

Tell me the measured AUC(0-t) at 72 h of Cc1cc(COc2nc(N)nc3ccn(Cc4ccccn4)c23)no1 , please. 57.5

* * *

# experiment-summary: Cmax in cynomolgus monkey at 1 mg/kg administered via oral gavage measured up to 72 hrs post dose
# Type: ADME, organism-based, Macaca fascicularis
# Design: dose 1 mg/kg, route oral
# measurement-setup: in vivo
endpoint-label: Cmax (ng/mL)
Reply with just the number (in ng/mL).

Tell me the measured Cmax of Cc1cc(COc2nc(N)nc3ccn(Cc4ccccn4)c23)no1 , please. 4.12

* * *

# experiment-summary: Cmax in C57Bl/6 mouse plasma at 1 mg/kg, po measured after 0.5 hrs by LC-MS analysis
# Format: ADME, organism-based
# Design: dose 1 mg/kg, route oral
endpoint-label: Cmax (ng/mL)
Use ng/mL as the unit, but write only the number.

Form field: reported Cmax of Cc1cc(COc2nc(N)nc3ccn(Cc4ccccn4)c23)no1 7.1
